# Tested on: OVCAR-8
# run-description: NCI tumour cell line growth inhibition, 48 h
Active and inactive are the calls of the source. Cut-off read from the data, not from the text of the source: active = GI50 up to about 1.1 µM and inactive = higher.
Pick one and only one: 1.0 (active), 0.0 (inactive)

C/C(=N\Nc1nc2ccccc2n1C)c1ccncn1
1.0
COc1cc2c(Cc3cc(OCc4ccccc4)ccc3N)nccc2c(OC)c1OC
0.0
CCN(CC)CCC(=O)/C=C/c1ccc(C)cc1
0.0

How was COc1ccc(/C=C/CN(C)CCc2ccccc2)cc1OC classified in this test?
0.0

How was CC(C)CC(C#CCCOC(=O)c1ccccc1)OC(=O)c1ccccc1 (stereo unspecified) classified in this test?
0.0

###

# System: HOP-18
# run-description: NCI tumour cell line growth inhibition, 48 h
Calls of active or inactive are those of the source. Rule as the data show it: active = GI50 up to about 1.1 µM and inactive = higher.
Attribute: GI50

These solved cases illustrate the format of a correct answer.
COc1ccc(CC2c3c(cc(OC)c(OC)c3OC)CCN2C)cc1OC (stereo not given)
51.2 µM (inactive)
CC(=O)CC(=O)Nc1ccccc1[N+](=O)[O-]
> 100 µM (inactive)
COc1cc2c(cc1O)[C@H](C)C(c1ccccc1OC)O2 (stereo not given in full)
> 100 µM (inactive)
CCCCN(CC)CC(C(C)=O)c1c(O)c2ccccc2oc1=O (stereo not given)
> 100 µM (inactive)
Cc1ccc2ccc(-c3ccccc3)c3c2c1C(=O)c1ccccc1C3=O
54.6 µM (inactive)

Hello, please tell me recorded GI50 for this one: CCOC(=O)NC1C2CC(=O)C(O2)C1OCc1ccccc1 (stereo not given)
> 100 µM (inactive)

Hello, please tell me recorded GI50 for this one: CCOc1cccc2cccnc12
57.5 µM (inactive)

Hello, please tell me recorded GI50 for this one: CC(=O)NNc1nc(C)c(C(=O)/C=C/c2ccc(NC(C)=O)cc2)s1
> 100 µM (inactive)

Hello, please tell me recorded GI50 for this one: COc1cccc2ccc3c(c12)C(=O)OC31CCc2c(C)cccc21 (stereo not given)
> 31.6 µM (inactive)

Hello, please tell me recorded GI50 for this one: CC1=C/C(=C2/N=C(N(C)C)SS2)C(C)=N1.[O-][Cl+3]([O-])([O-])O
> 100 µM (inactive)

Hello, please tell me recorded GI50 for this one: CC1=C(C(=O)CC(=O)C(=O)Nc2cc(C)ccc2C)Sc2ccccc2N1
> 100 µM (inactive)

Hello, please tell me recorded GI50 for this one: CC(=O)Nc1ccc(/C=c2\sc3nnc(CCC(=O)Nc4ccccc4Cl)n3c2=O)cc1
52.8 µM (inactive)

Hello, please tell me recorded GI50 for this one: O=c1c(O)c(-c2ccc(O)c(O)c2)oc2cc(O)cc(O)c12
> 100 µM (inactive)

Hello, please tell me recorded GI50 for this one: CCOC(=O)[C@H]1Nc2c(cccc2[N+](=O)[O-])[C@H]2OCC[C@@H]12
> 100 µM (inactive)

Hello, please tell me recorded GI50 for this one: CC1(C)OC2COC3(CNO)OC(C)(C)OC3C2O1 (stereo not given)
> 100 µM (inactive)

Hello, please tell me recorded GI50 for this one: CC(C)(C)[Si](OC1CC(n2cnc3c(N)ncnc32)OC1CO)(c1ccccc1)c1ccccc1 (stereo not given)
67.6 µM (inactive)

Hello, please tell me recorded GI50 for this one: Cc1nc2c(o1)/C(=N\c1ccccc1)c1nc(C)oc1/C2=N/c1ccccc1
17.3 µM (inactive)

Hello, please tell me recorded GI50 for this one: CSC1=NC=CCN1C
> 100 µM (inactive)

Hello, please tell me recorded GI50 for this one: N=C(N)NS(=O)(=O)c1ccc(NC(=O)c2cccn3c(=O)c4ccccc4nc23)cc1
> 100 µM (inactive)

Hello, please tell me recorded GI50 for this one: CCCCCCCCC(=O)CCCCCCCCC(=O)O
19.2 µM (inactive)
